assay: Plasma pharmacokinetics of rezafungin after a single 400-mg IV 1-hour infusion, open-label single-dose study, non-compartmental analysis; type: in vivo, human; conditions: both sexes, human, subjects with severe hepatic impairment (HI, Child-Pugh class C), n = 8, plasma sampling through 336 hours postdose, non-compartmental analysis, read-out: half-life (converted)
*1 amine or outer side, *2 acyl side, *3 side chain or, on linkers, in order; H or OH if unused. Where a SMILES comes first, the peptide text is derived from it. Bridges are numbered along the chain shown (N, C = ends). [ ]: non-standard residue; d: D form. The star is where a group is joined. Orn(4R-OH,5R-OCH2CH2NMe3+) = C[N+](C)(C)CCO[C@@H](N[*:3])[C@H](O)C[C@H](N[*:1])C(=O)[*:2]; pTerphenylCO(4''-OnC5H11) = CCCCCOc1ccc(-c2ccc(-c3ccc(C(=O)*)cc3)cc2)cc1; hTyr(3S-OH,4S-OH) = N[C@H](C(=O)O)[C@H](O)[C@@H](O)c1ccc(O)cc1; Pro(3S-OH,4S-Me) = C[C@H]1CN[C@H](C(=O)O)[C@H]1O; Hyp = O=C(O)[C@@H]1C[C@@H](O)CN1
measured-parameter: half-life (h)

INSERT INTO assay_data (compound, measured_parameter, measurement_units, reported_value) VALUES
  ('CCCCCOc1ccc(-c2ccc(-c3ccc(C(=O)N[C@H]4C[C@@H](O)[C@@H](OCC[N+](C)(C)C)NC(=O)[C@@H]5[C@@H](O)[C@@H](C)CN5C(=O)[C@H]([C@@H](C)O)NC(=O)[C@H]([C@H](O)[C@@H](O)c5ccc(O)cc5)NC(=O)[C@@H]5C[C@@H](O)CN5C(=O)[C@H]([C@@H](C)O)NC4=O)cc3)cc2)cc1 [RZF, Rezafungin] ({pTerphenylCO(4''''-OnC5H11)}-[Orn(4R-OH,5R-OCH2CH2NMe3+)]T[Hyp][hTyr(3S-OH,4S-OH)]T[Pro(3S-OH,4S-Me)]; lactam 1-C)', 'half-life', 'h', 121);
